# targetDesc: T1, human EphB2 (Homo sapiens, UniProt P29323)
# T1 construct: a protein of the extracellular region of each human Eph receptor fused with the SEAP protein and the His tag; made in house; host or cells: Expi293F cells
# T1 sequence (P29323 19-543 limits assumed): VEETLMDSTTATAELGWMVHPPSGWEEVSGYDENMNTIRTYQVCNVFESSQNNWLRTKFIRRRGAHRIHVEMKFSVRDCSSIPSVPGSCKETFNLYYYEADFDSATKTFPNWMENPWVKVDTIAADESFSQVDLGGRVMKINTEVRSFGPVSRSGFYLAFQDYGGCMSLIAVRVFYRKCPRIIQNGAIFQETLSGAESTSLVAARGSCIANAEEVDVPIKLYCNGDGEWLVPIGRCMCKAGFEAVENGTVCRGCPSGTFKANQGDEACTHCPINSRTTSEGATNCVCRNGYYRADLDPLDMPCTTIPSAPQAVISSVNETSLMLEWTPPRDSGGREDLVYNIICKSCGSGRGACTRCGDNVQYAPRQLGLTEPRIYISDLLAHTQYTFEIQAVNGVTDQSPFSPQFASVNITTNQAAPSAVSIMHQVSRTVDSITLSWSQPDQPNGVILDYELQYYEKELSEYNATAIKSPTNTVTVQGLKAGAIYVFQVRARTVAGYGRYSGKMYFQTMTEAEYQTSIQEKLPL
# assayMethodText: Selectivity ELISA of humanized antibodies for human Eph receptor
# Format: binding
# statedConditions: coated protein 1 nM
measurementKind: hEphB2-SEAP-: absorbance at 450 nm, percentage with respect to hEphA4-SEAP-His as 100% (%)
Field: numeric (%). Do not append units.

molecule	resultUnit	recordedValue
94 (antibody, V domains shown, constant regions without entry; synthetic humanized antibody light chain variable region sequence; synthetic humanized antibody heavy chain variable region sequence) VL: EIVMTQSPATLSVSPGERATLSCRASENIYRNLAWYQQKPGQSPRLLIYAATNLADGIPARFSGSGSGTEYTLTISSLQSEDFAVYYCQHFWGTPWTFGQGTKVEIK VH: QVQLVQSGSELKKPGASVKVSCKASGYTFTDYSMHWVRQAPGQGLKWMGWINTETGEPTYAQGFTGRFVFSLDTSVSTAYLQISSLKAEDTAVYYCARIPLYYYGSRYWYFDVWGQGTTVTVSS	%	7.0

Q: Entry 156 (antibody, V domains shown, synthetic humanized antibody heavy chain variable region sequence; synthetic humanized antibody light chain variable region sequence) VH: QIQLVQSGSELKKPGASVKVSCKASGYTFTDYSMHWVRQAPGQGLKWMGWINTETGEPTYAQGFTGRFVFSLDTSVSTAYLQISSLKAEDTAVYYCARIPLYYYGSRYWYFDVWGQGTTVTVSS VL: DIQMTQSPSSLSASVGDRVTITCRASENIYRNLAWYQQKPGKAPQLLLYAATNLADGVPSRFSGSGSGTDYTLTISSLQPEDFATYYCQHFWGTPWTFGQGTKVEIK : reported hEphB2-SEAP-: absorbance at 450 nm, percentage with respect to hEphA4-SEAP-His as 100% = ?
Result: 5.5

Q: Entry 144 (antibody, V domains shown, synthetic humanized antibody heavy chain variable region sequence; synthetic humanized antibody light chain variable region sequence) VH: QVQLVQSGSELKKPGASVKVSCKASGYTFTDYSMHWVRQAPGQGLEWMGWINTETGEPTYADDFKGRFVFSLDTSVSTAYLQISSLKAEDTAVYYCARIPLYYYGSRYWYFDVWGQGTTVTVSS VL: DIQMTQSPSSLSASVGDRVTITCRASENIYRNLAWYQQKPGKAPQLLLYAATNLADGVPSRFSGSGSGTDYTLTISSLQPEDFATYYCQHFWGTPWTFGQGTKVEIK : reported hEphB2-SEAP-: absorbance at 450 nm, percentage with respect to hEphA4-SEAP-His as 100% = ?
Result: 5.7

Origin of measurements: patent US10428140B2
